- Test system: LOX IMVI melanoma
- testMethodNotes: NCI tumour cell line growth inhibition, 48 h
measuredParameter: log10(TGI) (log10 of the value in µM)
Remember, log10 of TGI, in µM.

compound: O=C1CSC(c2cccc(Cl)c2)N1c1c(O)c(Cl)cc(Br)c1Cl (configuration not stated)
log10(TGI): 1.47

Return reported log10(TGI) values for all items listed beneath this line.
1. COC1/C=C\C=C(/C)C(=O)Nc2cc3nc4ccc(Br)cc4oc-3c(c2=O)CC(C)CC(OC)C(O)C(C)/C=C(\C)C1OC(N)=O (configuration not stated)
2. Cc1c(C#N)c2nnn(-c3ccc([N+](=O)[O-])cc3)c(=O)n2c1-c1ccccc1
3. COc1cc(Cl)cc(-c2nn(C(=O)NCCN3CCN(C)CC3)cc2-c2ccncc2)c1
4. COc1cc(CCNC2=CC(=O)c3cccnc3C2=O)ccc1O
5. CC(=O)[C@H]1CC[C@H]2[C@@H]3CCC4=CC(=O)CC[C@]4(C)[C@H]3CC[C@]12C
6. C=C(C)[C@@H]1CC[C@]2(CO)CC[C@]3(C)[C@H](CC[C@@H]4[C@@]5(C)CC[C@H](O)C(C)(C)[C@@H]5CC[C@]43C)[C@@H]12
7. Cc1cccc(C)c1NC(=O)/C(Cl)=C(/Cl)C(=O)O

-0.02
1.34
1.66
0.15
1.52
1.45
1.54

Hi, could you look up log10(TGI) for each item in my list?
1. CCN(CC)c1ccc(/C=c2\nc(-c3ccccc3)n3c2nc2ccccc23)cc1
2. S=c1nc(Oc2ccc(Cl)c(Cl)c2)[nH]c(=S)[nH]1
3. C=C1C[C@@H]2C/C=C/C(=O)C/C(C)=C\C=C\C(=O)O[C@H](C=O)C/C(C)=C/[C@H](C1)O2
4. COc1ccc2c(c1)nc(N)c1c3cc(OC)c(OC)cc3cn21
5. Cc1cc(C)c(O)c(CNCCCCCCNCc2cc(C)cc(C)c2O)c1
6. COc1ccc(C2=NN(C(=O)COc3ccc(Cl)cc3)C(O)(c3cc(F)c(Cl)cc3Cl)C2)cc1OC (configuration not stated)
7. CC(=O)Nc1ccc(N2C(=O)CS(=O)(=O)C2c2cccc(Oc3ccccc3)c2)cc1 (configuration not stated)
8. O=C1/C(=C/c2ccc(O)c([N+](=O)[O-])c2)CCC/C1=C\c1ccc(O)c([N+](=O)[O-])c1

1. 1.42
2. 1.58
3. 1.13
4. 1.26
5. 0.46
6. 0.44
7. 1.55
8. 1.37
